The entries below come with measured Relative Potency values attached.
molecular target: E. coli FimH (Escherichia coli); experiment: SPR solution affinity (competition) of ligands for FimH on immobilized 6-aminohexyl α-D-mannopyranoside; format: binding; set-up: The FimH residues 1-158 were isolated from the E. coli strain UTI89; made in house; conditions: relative to MeαMan (1) = 1
Please respond with just the number, no unit label.

Take a look at these entries with their results.
compound	Relative Potency
CO[C@H]1O[C@H](CO)[C@@H](O)[C@H](O)[C@@H]1O [MeαMan (1), Methyl α-D-mannopyranoside]	1
OCC1OC(SCC=Cc2ccc(-c3ccccc3)cc2)C(O)C(O)C1O (stereo not drawn) [Compound 12]	5
OCC1OC(OCC=Cc2ccc(-c3ccccc3)cc2)C(O)C(O)C1O (stereo not drawn) [Compound 5]	24
O=[N+]([O-])c1ccc(O[C@H]2O[C@H](CO)[C@@H](O)[C@H](O)[C@@H]2O)cc1 [PNPαMan (2), para-nitrophenyl α-D-mannopyranoside]	113
CCCCCCCO[C@H]1O[C@H](CO)[C@@H](O)[C@H](O)[C@@H]1O [HeptylαMan (3), Heptyl α-D-mannopyranoside]	200

Then this compound:
(Q) # query: Relative Potency | item OCC1OC(CC=Cc2ccc(-c3ccccc3)cc2)C(O)C(O)C1O (stereo not drawn) [Compound 6] | system: E. coli FimH (Escherichia coli)
(A) 42

====

target: E. coli FimH (Escherichia coli); assay: SPR kinetic analysis of FimH against immobilized 6-aminohexyl α-D-mannopyranoside (4); format: binding; design: The FimH residues 1-158 were isolated from the E. coli strain UTI89; made in house; conditions: KD, fitted constant, KD = koff/kon
readout.label: Kd (nM)
Please respond with the number in nM and leave the unit unwritten.

(Q) Query: Kd; subject: NCCCCCCO[C@H]1O[C@H](CO)[C@@H](O)[C@H](O)[C@@H]1O [Compound 4, 6-aminohexyl α-D-mannopyranoside]
(A) 38.6

====

target: E. coli FimH (Escherichia coli); assay: SPR solution affinity (competition) of ligands for FimH on immobilized 6-aminohexyl α-D-mannopyranoside; type: binding; design: The FimH residues 1-158 were isolated from the E. coli strain UTI89; made in house
pKd: −log10 of the molar value.
Decision: pKd compared against 8; not below it gives Yes, below it gives No.

These solved cases illustrate the format of a correct answer.
compound	discrete.label
CO[C@H]1O[C@H](CO)[C@@H](O)[C@H](O)[C@@H]1O [MeαMan (1), Methyl α-D-mannopyranoside]	No
O=[N+]([O-])c1ccc(O[C@H]2O[C@H](CO)[C@@H](O)[C@H](O)[C@@H]2O)cc1 [PNPαMan (2), para-nitrophenyl α-D-mannopyranoside]	Yes
CCCCCCCO[C@H]1O[C@H](CO)[C@@H](O)[C@H](O)[C@@H]1O [HeptylαMan (3), Heptyl α-D-mannopyranoside]	Yes
OCC1OC(SCC=Cc2ccc(-c3ccccc3)cc2)C(O)C(O)C1O (stereo not drawn) [Compound 12]	No

Please find the next compound below.
(Q) Reported pKd reaches at least 8 for OCC1OC(OCC=Cc2ccc(-c3ccccc3)cc2)C(O)C(O)C1O (stereo not drawn) [Compound 5] ?
(A) No

Taken from paper PMC6804135.
